- STUDY_SYSTEM: Type-1 angiotensin II receptor (Homo sapiens, UniProt P30556); note: assay procedure not described here
- Sequence (P30556 whole entry): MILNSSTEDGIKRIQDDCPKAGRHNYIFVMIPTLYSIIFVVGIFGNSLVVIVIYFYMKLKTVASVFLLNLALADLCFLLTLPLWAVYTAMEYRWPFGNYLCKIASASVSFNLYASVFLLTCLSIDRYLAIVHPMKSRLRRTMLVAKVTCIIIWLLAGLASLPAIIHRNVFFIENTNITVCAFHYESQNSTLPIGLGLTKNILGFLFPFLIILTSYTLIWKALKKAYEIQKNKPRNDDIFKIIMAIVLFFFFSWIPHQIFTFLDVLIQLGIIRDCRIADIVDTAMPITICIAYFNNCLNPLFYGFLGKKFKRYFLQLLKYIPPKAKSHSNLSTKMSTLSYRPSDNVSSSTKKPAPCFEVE
Quick reference: AC50 of the listed items.
PROPERTY_LABEL: AC50

[[record]]
compound = "CNCCCC1c2ccccc2C=Cc2ccccc21"
val = "> 10 µM"

[[record]]
compound = "CC(=O)OCC[N+](C)(C)C"
val = "> 30 µM"

[[record]]
compound = "CC(=O)Oc1ccccc1C(=O)Nc1ncc([N+](=O)[O-])s1 [NITAZOXANIDE]"
val = "5.6 µM"

[[record]]
compound = "CNC(=O)Oc1ccc2c(c1)[C@]1(C)CCN(C)[C@@H]1N2C"
val = "> 30 µM"

[[record]]
compound = "COc1ccc2c(c1)[C@]13CCCC[C@@H]1[C@H](C2)N(C)CC3"
val = "> 30 µM"

